Reported self-cleavage is given for each of the following variants.
B1: HDV Ribozyme (parent)
chain: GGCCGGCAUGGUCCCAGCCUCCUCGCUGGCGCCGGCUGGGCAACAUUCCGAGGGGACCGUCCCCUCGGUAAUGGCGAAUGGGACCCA

Variants of: B1
Assay Info: self-cleavage, relative activity (ratio to wild type); higher = more cleavage; co-transcriptional
Measured Property: self-cleavage

GGCCGGCAUGGUCCCAGCCUCCUCGCUGGCGCCGGCUGGGCAACAUUCAGAGGGGACCGUCCCCUCGGUAAUUGCGAAUGGGACCCA: 0.272
GGCCGGCAUGGUCCCAGCCUCCUCGCUGGCGCCGGCUGGGCAACAUUCCGAGGGGAGCGUCCCUUCGGUAAUGGCGAAUGGGACCCA: 1.05
GGCCGGCAUGGUCCAAGCCUCCUCGCUGGCGCCGGCUGGGCUACAUUCCGAGGGGACCGUCCCCUCGGUAAUGGCGAAUGGGACCCA: 0.269
GGCCGGCAUGGUCCCAGCCUCCUCGCUGGCGCCGGCUGGGCAACAUUCCGAGAGGAGCGUCCCCUCGGUAAUGGCGAAUGGGACCCA: 0.992
GGCCGGCAUGGUCCCAGCCUCCUCGCUGGCGCCGGCUGGGCAACAUUCCGAGGGGACCGUCCAAUCGGUAAUGGCGAAUGGGACCCA: 0.665
GGCCGGCAUGGUCCCAGCCUCCUCGCUGGCUACGGCUGGGCAACAUUCCGAGGGGACCGUCCCCUCGGUAAUGGCGAAUGGGACCCA: 0.111
GGCCGGCAUGGGCCCAGCCUCCUCGCUGGCGCCGGCUGGGCAACAUUCCGAGGGGACCGUCCCCUCGGUAAUGGCGAUUGGGACCCA: 0
GGCCGGCAUGGUCCCAGCCUCCUCGCUGGCGCCGGCUCGGCAACAUUCCGAGGGGACCGUCCCCUCGGCAAUGGCGAAUGGGACCCA: 0.18
GGCCGGCAUGGUCCCAGCCUCCUCGCUGGCGCCGGCUGGUCAACAUUCCGAGGGGACCGUCCCCUCGGUAAUGGCGAAUCGGACCCA: 0.0692
GGGCGGCAUGGUCCCAGCCUCCUCGCUGGCGCCGGCUGGGCAACAUUCCGAGGGGACCGUCCCCUCGGUAAUGGCGAAUGGUACCCA: 0.166
GGCCGGCAUGGGCCCAGCCUCCUCGCUGGCGCCGGCUGGGCAACAUUCCGAGGGGACCGUCCCGUCGGUAAUGGCGAAUGGGACCCA: 0.492
GGCGGGCAUGGUCCCAGCCUCCUCGCUGGCGCCGGCUGGGCAACAUUCCGAGGGGACCGUCCCCUCGGUAAUGGCGAAUGGGACCCA: 0.376
GGCCGGCAUGGUCCCAGCCUCCUCUCUGGCGCCGGCUGGGCAACAUUCCGAGGGGACCGUCCCCUCGGGAAUGGCGAAUGGGACCCA: 0.244
GGCCGGCAUGGUCCCAGCCUCCUCGAUUGCGCCGGCUGGGCAACAUUCCGAGGGGACCGUCCCCUCGGUAAUGGCGAAUGGGACCCA: 0.222
GGCCGGCAUGGUCCCAGCCUCGGCGCUGGCGCCGGCUGGGCAACAUUCCGAGGGGACCGUCCCCUCGGUAAUGGCGAAUGGGACCCA: 0
GGCCGGCAUGGUCCCAGCCUCCUCGCUGGCGCCGGCUGGGCAACAUUCCGAGGGUACCGUCCCCUCGGUAAUGGCGACUGGGACCCA: 0.18
GGCCGGCGUGGUCCCAGCUUCCUCGCUGGCGCCGGCUGGGCAACAUUCCGAGGGGACCGUCCCCUCGGUAAUGGCGAAUGGGACCCA: 0.104
GGCCGGCAUGGUCCUAGCCUCCUCGCUGGCGCCGGCUGUGCAACAUUCCGAGGGGACCGUCCCCUCGGUAAUGGCGAAUGGGACCCA: 0.322
GGCCGGCAUGGUCCCAGCCUCCUCGCUGGCGCCGGCUGGGCAACAUUCCGAAGGGACCGUCCCGUCGGUAAUGGCGAAUGGGACCCA: 0.935
GGCCGGCAUGGUCCCAGCCUCCUCGCUGGCGCCGGCUUGGCAACAUUCCGAGGGGACCGUCCCCUCGGUAAUGGCGAAUGCGACCCA: 0.0678
GGCCGGCAUGGUCCCAGCCUCCUCGCUGGCGCCGGCUGGGCAACAUUCCAAGGGGAUCGUCCCCUCGGUAAUGGCGAAUGGGACCCA: 1
GGCCGGCAUGGUCGCAGCCUCGUCGCUGGCGCCGGCUGGGCAACAUUCCGAGGGGACCGUCCCCUCGGUAAUGGCGAAUGGGACCCA: 0

Cited source for all entries: the RNAGym collection of RNA variant scans (doi:10.7554/elife.80360)
